# System: Saccharomyces cerevisiae
# METHOD_NOTES: Growth inhibition of gga1/2delta containing yeast MDY327
# Assay type: functional, organism-based
MEASURE: EC50 (µM)
Please give a number only; it is taken to be in µM.

Prompt line: // Input: `C/C=C(\C)CN1CCN(c2ccc(C(C)=O)cc2)CC1` . Output its EC50 only.
Response line: 4

###

# Tested on: Saccharomyces cerevisiae
# METHOD_NOTES: Growth inhibition of apl2/4 deficient yeast MDY334 cells assessed as cell growth at 25 uM relative to wild-type
# Assay type: functional
# Set-up: scale not given: the % may be the effect or the level left
Assignment: determine reported Activity for the given molecules.
Please give a number only; it is taken to be in %.

Prompt line: // Input: `CCn1c2ccccc2c2cc(CNC3CCCC3)ccc21` . Output its Activity only.
Response line: 70

Prompt line: // Input: Cl.N=c1n(Cc2ccccc2)c2ccccc2n1CC(O)COc1ccccc1 (configuration not stated) . Output its Activity only.
Response line: 50

Prompt line: // Input: `c1ccc(CN2CCC(NCC(c3ccccc3)c3ccccc3)CC2)cc1` . Output its Activity only.
Response line: 70

Prompt line: // Input: `O=C(Nc1ccccc1)c1ccccc1/N=C/c1cc(Br)ccc1O` . Output its Activity only.
Response line: 50

Prompt line: // Input: `Cc1cc(S)n(-c2ccccc2)n1` . Output its Activity only.
Response line: 50

Prompt line: // Input: CC(C)Cc1ccc(C(C)C(=O)N/N=C/c2ccc(N(C)C)cc2)cc1 (configuration not stated) . Output its Activity only.
Response line: 70

Prompt line: // Input: `C/C=C(\C)CN1CCN(c2ccc(C(C)=O)cc2)CC1` . Output its Activity only.
Response line: 70

Prompt line: // Input: `Cc1cc(O)c(C(C)C)cc1NS(=O)(=O)c1ccc(Cl)cc1` . Output its Activity only.
Response line: 70

Prompt line: // Input: `O=C1/C(=C/c2ccc(O)cc2)SC(=S)N1C1CCCCC1` . Output its Activity only.
Response line: 50

Prompt line: // Input: `CC(=O)c1ccc(N2CCN(Cc3ccco3)CC2)cc1` . Output its Activity only.
Response line: 70

Prompt line: // Input: `O=C(N/N=C/c1c[nH]c2ccccc12)c1cc(-c2ccc(Cl)cc2)n[nH]1` . Output its Activity only.
Response line: 70

Prompt line: // Input: `CC(=O)c1ccc(N2CCN(Cc3cc(F)ccc3F)CC2)cc1` . Output its Activity only.
Response line: 70
